molecular target: HLA-DRB4*0101 (human); assay: competition binding; conditions: modification not given
quantity: pIC50
# reply with the number alone; pIC50 is -log10 of concentration in mol/L

[ask] Item under review: VGYVDDTQFVRFDSD [p6] . Reported pIC50?
[reply] 4.05
